Test system: Aspergillus flavus
PROTOCOL_TEXT: Antifungal activity against Aspergillus flavus assessed as mycelial growth at 20 uL after 4 to 12 days by agar disk diffusion method relative to untreated control
Format: functional
EXPERIMENTAL_READOUT: Activity (%)
Quick reminder: number only, in %, skip the unit.

MOLECULE	TARGET_OF_ASSAY	Activity, %
CC1=CCC(=C(C)C)CC1 [TERPINOLENE]	Aspergillus flavus	0
CC1=CC[C@H](C(C)C)C=C1 [ALPHA-PHELLANDRENE]	Aspergillus flavus	0
CC1=CC[C@@H](C(C)(C)O)CC1 [ALPHA-TERPINEOL]	Aspergillus flavus	100
CC1=CC=C(C(C)C)CC1 [ALPHA-TERPINENE]	Aspergillus flavus	0
CC1=CCC(C(C)C)=CC1 [GAMMA-TERPINENE]	Aspergillus flavus	0

Let us move to another entry and its Activity.
The reported value for CC1=CCC(O)(C(C)C)CC1 (stereo unspecified) [TERPINEOL] in terms of Activity is 100
